Hello, the source for this data is ChEMBL document CHEMBL1129424, in case you need it.

Molecular target: Sterol O-acyltransferase 1 (Rattus norvegicus)
Experiment: Inhibition of rat liver microsomal Acyl coenzyme A:cholesterol acyltransferase 1 from rabbit plasma after an oral dose of 25 mg/kg
Format: cell-free
quantity-measured: inhibition (%)

molecule: CCCCCCCCCCCCc1cc(C(C(=O)Nc2c(OC)cc(OC)cc2OC)c2ccccc2)on1 (centres undefined)
quantity-measured: inhibition
assay-result: 94

a: CCCCCCCCCCCCc1cc(C(C(=O)Nc2c(OC)cc(OC)cc2OC)c2ccccc2)no1 (centres undefined)
b: CCCCCCCCCCCCc1cn(C(C(=O)Nc2c(OC)cc(OC)cc2OC)c2ccccc2)nn1 (centres undefined)
c: CCCCCCCCCCCCc1nnc(C(C(=O)Nc2c(OC)cc(OC)cc2OC)c2ccccc2)o1 (centres undefined)
Rank descending by inhibition. Your answer should be the labels, listed in the requested order.
a, c, b
(a: 92%, c: 21%, b: 12%)

====

Target: Sterol O-acyltransferase 1 (Rattus norvegicus, UniProt O70536)
Sequence (O70536 whole entry): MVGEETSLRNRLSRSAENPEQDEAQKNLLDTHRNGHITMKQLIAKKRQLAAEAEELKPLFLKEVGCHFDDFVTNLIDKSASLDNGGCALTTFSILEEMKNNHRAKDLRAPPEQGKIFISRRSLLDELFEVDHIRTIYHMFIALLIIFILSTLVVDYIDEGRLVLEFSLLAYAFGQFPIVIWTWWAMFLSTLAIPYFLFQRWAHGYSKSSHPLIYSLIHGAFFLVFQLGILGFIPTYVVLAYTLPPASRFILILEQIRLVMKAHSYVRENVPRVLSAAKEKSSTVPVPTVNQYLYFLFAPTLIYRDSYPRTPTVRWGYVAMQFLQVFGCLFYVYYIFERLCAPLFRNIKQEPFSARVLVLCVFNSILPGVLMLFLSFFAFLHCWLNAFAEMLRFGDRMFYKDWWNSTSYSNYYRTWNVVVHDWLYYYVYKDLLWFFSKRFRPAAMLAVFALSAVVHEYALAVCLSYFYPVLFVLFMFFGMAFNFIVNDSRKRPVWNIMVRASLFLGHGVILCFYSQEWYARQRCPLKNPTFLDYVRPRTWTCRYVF
quantity-measured: IC50 (nM)

1: CCCCCCCCCCCCc1cc(C(C(=O)Nc2c(OC)cc(OC)cc2OC)c2ccccc2)on1 (stereo not given)
2: CCCCCCCCCCCCc1cc(C(C(=O)Nc2ccc(F)cc2F)c2ccccc2)on1 (stereo not given)
3: CCCCCCCCCCCCc1noc(C(C(=O)Nc2c(OC)cc(OC)cc2OC)c2ccccc2)n1 (stereo not given)
4: CCCCCCCCCCCCc1cn(C(C(=O)Nc2c(OC)cc(OC)cc2OC)c2ccccc2)cn1 (stereo not given)
Put the items in order so that reported IC50 rises from first to last. Your answer should be the labels, listed in the requested order.
1, 3, 2, 4
(1: 15 nM, 3: 31 nM, 2: 51 nM, 4: 110 nM)

I: CCCCCCCCCCCCc1cc(C(C(=O)Nc2c(C(C)C)cccc2C(C)C)c2ccccc2)no1 (stereo not given)
II: CCCCCCCCCCCCc1cc(C(C)(C)C(=O)Nc2c(OC)cc(OC)cc2OC)no1
Could you please tell me which of these two has the higher IC50: I or II ? Provide the label of your selected option as the answer.
II
(II: 150 nM, I: 24 nM)

====

Assay: Acyl coenzyme A:cholesterol acyltransferase inhibition in cell culture measured in murine IC-21 macrophages.
pIC50: −log10 of the molar value.
quantity-measured: pIC50

compound: CCCCCCCCCCCCc1cn(C(C(=O)Nc2c(OC)cc(OC)cc2OC)c2ccccc2)nn1 (centres undefined)
pIC50: 7.27

a: CCCCCCCCCCCCc1cc(C(C(=O)Nc2c(OC)cc(OC)cc2OC)c2ccccc2)no1 (centres undefined)
b: CCCCCCCCCCCCc1nnc(C(C(=O)Nc2c(OC)cc(OC)cc2OC)c2ccccc2)o1 (centres undefined)
c: CCCCCCCCCCCCc1cc(C(C(=O)Nc2c(OC)cc(OC)cc2OC)c2ccccc2)on1 (centres undefined)
Rank descending by pIC50. Your answer should be the labels, listed in the requested order.
b, c, a
